# Tested on: IL-1β release in U937 cells after NLRP3 activation
# test-details: IC50 determination of IL-1β release inhibition in U937 cells
# Assay type: cell-based
# test-context: Homo sapiens, U-937, 5 h, read-out: IL-1β IC50 (nM) U937 cells
Hi there, I'd appreciate the recorded IC50 for every entry that follows.

What value of measured IC50 is listed for CC(C)NCc1coc(S(=N)(=O)NC(=O)Nc2c3c(cc4c2CCC4)CCC3)c1 (stereo not drawn) ?
< 5 nM

# IC50 lookup, item `Cc1oc(S(=O)(=O)NC(=O)Nc2c3c(c(F)c4c2CCC4)CCC3)cc1CN1CC[C@H](O)C1`
50 to 500 nM

GET /values?readout=IC50&item= Cc1oc(S(=N)(=O)NC(=O)Nc2c3c(cc4c2CCC4)CCC3)cc1CNC(C)C (stereo not drawn)
< 5 nM
